Target: ANT
Assay: BIAcore
pKd: −log10 of the molar value.

binder | pKd
LY6G6D (other) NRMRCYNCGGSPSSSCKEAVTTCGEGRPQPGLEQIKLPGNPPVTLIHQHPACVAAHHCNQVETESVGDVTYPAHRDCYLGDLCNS | 9.59
